- System: NCI-H23
- assay.remarks: NCI tumour cell line growth inhibition, 48 h
Activity calls are given as the source filed them. Cut-off read from the data, not from the text of the source: active = GI50 up to about 1.1 µM and inactive = higher.
Field 'call' accepts true (1) for active, false (0) for inactive

molecule: COC(=O)C1=C2Nc3ccccc3C23CCN2C(O)C4(CC5CC67CCOC6CCN6CCC8(c9cccc(OC)c9N(C4)C58O)C67)C4OCCC4(C1)C23 (configuration not stated)
system.under.test: NCI-H23
group: false (0)
--
molecule: COc1ccc(C2=C(N)c3ccccc3C2=O)cc1
system.under.test: NCI-H23
group: false (0)
--
molecule: O=C1Nc2cc(F)ccc2C1=O
system.under.test: NCI-H23
group: false (0)
--
molecule: O=C(c1ccccc1)C1N=NCC1c1ccc([N+](=O)[O-])cc1 (configuration not stated)
system.under.test: NCI-H23
group: false (0)

query: Identify the outcome logged in this assay for the molecule shown: C=CC1(C)CCC2C(=CCC3C2(C)CC(O)C(O)C3(C)COC2OC(CO)C(O)C(O)C2O)C1 (configuration not stated)
result: false (0)

query: Follow-up entry: O=C/C(=C(/Br)I)c1ccccc1
result: false (0)

query: Same question, Cc1no[n+]([O-])c1/C=N/NS(=O)(=O)c1ccccc1 this time
result: false (0)

query: Quick one: N#Cc1c(O)nc2[nH]nc(/N=N\c3c(O)ccc4ccccc34)c2c1-c1ccc(Cl)cc1
result: true (1)

query: One more molecule: CCCCCCc1ccc(CCCCCCCC(=O)O)o1
result: false (0)

---

- System: A498
- assay.remarks: NCI tumour cell line growth inhibition, 48 h
The source made the active and inactive calls. Cut-off read from the data, not from the text of the source: active = GI50 up to about 1.1 µM and inactive = higher.
Your reply should match one of these outcome classes. t for active, f for inactive

The following molecules have reported results that may help.
molecule: COc1ccccc1/C=C/C(=O)c1sc(-c2cccnc2)nc1C
group: f

molecule: O=C(CC1(O)C(=O)Nc2c(Cl)cc(Cl)cc21)c1cccc([N+](=O)[O-])c1 (stereo not drawn)
group: f

molecule: COc1ccc([N+]2=NC(c3ccc([N+](=O)[O-])cc3)=NN(c3ccccc3)C2)cc1.[O-][Cl+3]([O-])([O-])[O-]
group: f

query: Recorded test call requested for Nc1ccc(S(=O)(=O)c2ccc(/N=[N+](\[O-])c3ccc(S(=O)(=O)c4ccc(N)cc4)cc3)cc2)cc1
result: f

query: For C/C=C/C=C\C1OC(O)([C@H](CC)C(=O)NC/C=C/C=C(\C)[C@H](OC)C(C)C2OC(\C=C/C=C/C=C(\C)C(=O)c3c(O)ccn(C)c3=O)[C@H](O)[C@@H]2O)C(O)C(O)C1(C)C (stereo partly drawn) then?
result: f

query: Cool, now CC1=C(C)C(=O)C(C2=CC(=O)C=CC2=O)=C(C2=CC(=O)C=CC2=O)C1=O
result: f

---

- Test system: SN12C
- assay.remarks: NCI tumour cell line growth inhibition, 48 h
Active and inactive are the calls of the source. Cut-off read from the data, not from the text of the source: active = GI50 up to about 1.1 µM and inactive = higher.
The reply should be one of these categories: active, inactive

Examples from the recorded data:
molecule: Cc1cc(O)c2c3c1C(=O)Oc1c(CO)c(O)c(C(=O)O)c(c1O3)C=NN=Cc1c3c(c(CO)c(O)c1C(=O)O)OC(=O)c1c(C)cc(O)c(c1O3)C=NN=C2
system.under.test: SN12C
group: inactive
//
molecule: CC1(C)[C@H]2Cc3cc4nc5ccccn5c4cc3[C@@H]1C2
system.under.test: SN12C
group: inactive
//
molecule: O=C1OC(=O)C([Se]c2ccccc2)=C1[Se]c1ccccc1
system.under.test: SN12C
group: inactive
//
molecule: C=C(C)[C@H]1C[C@@H]2O[C@@](O)(/C(C)=C\C(=O)/C=C(/C)C[C@H]3OC(=O)[C@@]24O[C@H]34)[C@@H]1O
system.under.test: SN12C
group: inactive
//
molecule: COc1cc(C2C3=C(NC(=O)C2C#N)c2ccc4ccccc4c2OCC3)cc(OC)c1OC (stereo unspecified)
system.under.test: SN12C
group: inactive

query: // outcome(item) with item = CCCCCCCCCCCCCC[C@@H](O)[C@H]1CC[C@H]([C@H]2CC[C@H]([C@H](O)CCCCCC[C@@H](O)CC3=C[C@H](C)OC3=O)O2)O1
result: inactive

query: Moving on to CC12OC3(C)OC(=O)C(c4ccccc4)(O1)C3(C)O2 (stereo unspecified)
result: inactive

query: Can you handle CC1=C(C)C(=O)C(C2=CC(=O)C=CC2=O)=C(C2=CC(=O)C=CC2=O)C1=O next?
result: inactive

query: Subsequent entry: N#Cc1c(N)oc(-c2cccc([N+](=O)[O-])c2)c1C#N
result: inactive

query: Entry to check: COc1cc(/C=C2/SC(c3ccccc3)N(c3cccc(NC(C)=O)c3)C2=O)cc(OC)c1OC (stereo unspecified)
result: inactive

query: Similarly, CC1(O)C2(c3ccccc3)CCC[N+]1(C)CC2 (stereo unspecified) ?
result: inactive
